Source listed as ChEMBL document CHEMBL3785056.

Target: Tubulin (Sus scrofa) (UniProt P02554+P02550)
Sequence (P02550 whole entry, looked up): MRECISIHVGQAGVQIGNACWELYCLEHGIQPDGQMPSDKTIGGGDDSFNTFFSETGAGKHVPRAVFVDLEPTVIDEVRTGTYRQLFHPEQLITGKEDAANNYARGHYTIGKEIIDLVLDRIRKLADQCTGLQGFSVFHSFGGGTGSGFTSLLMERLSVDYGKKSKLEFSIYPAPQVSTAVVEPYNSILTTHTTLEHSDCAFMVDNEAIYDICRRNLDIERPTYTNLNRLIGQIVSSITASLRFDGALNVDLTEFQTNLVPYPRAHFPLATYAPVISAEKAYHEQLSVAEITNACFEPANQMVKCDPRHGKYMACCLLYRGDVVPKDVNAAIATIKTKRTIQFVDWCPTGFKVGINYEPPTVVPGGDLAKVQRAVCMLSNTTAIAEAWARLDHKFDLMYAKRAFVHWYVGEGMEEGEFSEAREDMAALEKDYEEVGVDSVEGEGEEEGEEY
Sequence (P02554 whole entry, looked up): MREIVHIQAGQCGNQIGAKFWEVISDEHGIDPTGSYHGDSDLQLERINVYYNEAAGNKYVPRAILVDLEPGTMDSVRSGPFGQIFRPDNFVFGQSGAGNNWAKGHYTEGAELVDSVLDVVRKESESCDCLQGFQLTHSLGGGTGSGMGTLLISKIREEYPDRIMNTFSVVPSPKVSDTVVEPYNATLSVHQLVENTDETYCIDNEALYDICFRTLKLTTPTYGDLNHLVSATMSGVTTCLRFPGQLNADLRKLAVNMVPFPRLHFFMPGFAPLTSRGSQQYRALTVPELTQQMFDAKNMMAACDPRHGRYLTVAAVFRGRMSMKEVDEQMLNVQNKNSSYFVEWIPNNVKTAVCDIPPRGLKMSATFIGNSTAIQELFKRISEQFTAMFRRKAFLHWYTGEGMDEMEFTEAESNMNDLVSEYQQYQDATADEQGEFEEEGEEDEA
Test: Inhibition of pig brain tubulin polymerization at 5 uM by spectrophotometric analysis
The source made the active and inactive calls. The rule behind the calls is not given here.
Metric name: inhibition

CNc1nc2ccccc2n2c(-c3ccc(OC)c(OC)c3OC)cnc12    inactive
CNc1nc2ccccc2n2c(-c3cccc(OC)c3)cnc12    84%
CNc1nc2ccccc2n2c(-c3cccc(OC)c3OC)cnc12    inactive
CNc1nc2ccccc2n2c(-c3ccccc3OC)cnc12    inactive
CNc1nc2ccccc2n2c(-c3cc(OC)c(OC)c(OC)c3)cnc12    inactive

# input Please provide the recorded inhibition for CNc1nc2ccccc2n2c(-c3ccc(OC)cc3)cnc12 , tested on Tubulin (Sus scrofa) (UniProt P02554+P02550).
# output 99%

# input Also, CNc1nc2ccccc2n2c(-c3cc(OC)cc(OC)c3)cnc12 please.
# output 98.5%

# input Also, CNc1nc2ccccc2n2c(-c3c(OC)cc(OC)cc3OC)cnc12 please.
# output inactive

###

Target: Tubulin (Sus scrofa) (UniProt P02554+P02550)
Assay: Inhibition of pig brain tubulin polymerization at 5 uM by spectrophotometric analysis
Metric name: inhibition

# input I have this molecule here, CNc1nc2ccccc2n2c(-c3cccc(OC)c3O)cnc12 , and I need its recorded inhibition.
# output 90%

# input Also, Nc1nc2ccccc2n2c(-c3cccc(O)c3)cnc12 please.
# output 11.3%

# input Also, COc1cccc(-c2cnc3c(N)nc4ccccc4n23)c1 please.
# output 41%

# input Also, CNc1nc2ccccc2n2c(-c3cc(OC)ccc3OC)cnc12 please.
# output 3%

# input Also, CNc1nc2ccccc2n2c(-c3ccc(OC)c(OC)c3)cnc12 please.
# output 63%
